target: Sphingosine kinase 2 (Mus musculus); experiment: Inhibition of mouse SphK2 expressed in baculovirus infected Sf9 insect cells assessed as remaining activity using sphingosine and [gamma-(32)P]-ATP at 100 uM by scintillation proximity counting
Reported Activity values for the following compounds.
A number alone suffices; assume %.

Use these answered entries as a reference point.
>>> observed_measurement("CCCCCCCCc1ccc([C@H]2CC[C@H](N(C)CCC)CC2)cc1")
45.9
>>> observed_measurement("CCCCCCCCc1ccc([C@H]2CC[C@@H](N(C)C)CC2)cc1")
50.8

Could you now consider this next compound?
// CCCCCCCCc1ccc([C@H]2CC[C@@H](NC(C)C)CC2)cc1 : Activity value = 16.5
